target: biotinylated Gβ1γ2 mutant Met188Ala (rat) (UniProt P54311); assay: phage ELISA, % of wild-type b-βγ
Sequence (P54311 whole entry M188A, chain 1 of 2): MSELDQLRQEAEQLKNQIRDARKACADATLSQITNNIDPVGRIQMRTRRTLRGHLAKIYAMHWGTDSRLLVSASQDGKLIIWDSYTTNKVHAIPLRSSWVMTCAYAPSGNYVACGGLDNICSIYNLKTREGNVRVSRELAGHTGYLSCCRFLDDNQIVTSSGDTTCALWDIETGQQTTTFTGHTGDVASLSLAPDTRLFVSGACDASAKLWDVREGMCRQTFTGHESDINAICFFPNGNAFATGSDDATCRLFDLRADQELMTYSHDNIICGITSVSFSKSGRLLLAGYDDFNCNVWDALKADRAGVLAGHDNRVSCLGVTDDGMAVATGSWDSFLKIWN
Sequence (P63212 2-68, chain 2 of 2, further chain): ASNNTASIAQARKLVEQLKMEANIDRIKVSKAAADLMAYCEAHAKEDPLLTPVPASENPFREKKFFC
The entries below come with measured % of Wild-Type Signal values attached.
endpoint-label: % of Wild-Type Signal

[[record]]
binder = "SCEKRLGVRSCT (Group III) [phage C5 (SCEKRLGVRSCT)]"
endpoint_label = "% of Wild-Type Signal"
data_value = "97.2%"

[[record]]
binder = "WCPPKLEQWYDGCA (Group IV) [phage C2 (WCPPKLEQWYDGCA)]"
endpoint_label = "% of Wild-Type Signal"
data_value = "-0.7%"

[[record]]
binder = "SCKRTKAQILLAPCT (Group I; also called Cl) [phage C1 (SCKRTKAQILLAPCT)]"
endpoint_label = "% of Wild-Type Signal"
data_value = "4%"

[[record]]
binder = "WCPPKAMTQLGIKAC (Group II) [phage C14 (WCPPKAMTQLGIKAC)]"
endpoint_label = "% of Wild-Type Signal"
data_value = "9.9%"

[[record]]
binder = "LCSKAYLLLGQTC (Group I) [phage 2F (LCSKAYLLLGQTC)]"
endpoint_label = "% of Wild-Type Signal"
data_value = "8.5%"

[[record]]
binder = "SIGKALFILGYPDYD [phage 3.14 (SIGKALFILGYPDYD)]"
endpoint_label = "% of Wild-Type Signal"
data_value = "2.5%"

[[record]]
binder = "SCGHGLKVQSTIGACA (Group II) [phage 3C (SCGHGLKVQSTIGACA)]"
endpoint_label = "% of Wild-Type Signal"
data_value = "-5.7%"

[[record]]
binder = "SCEKRYGIEFCT [phage C4 (…)]"
endpoint_label = "% of Wild-Type Signal"
data_value = "128%"


All values here come from patent US20090221691A1.
